Molecular target: HLA-A*02:06
Experiment: IEDB peptide-MHC binding, purified MHC/competitive/radioactivity; filed as Kd, often an IC50 or EC50 that approximates it; bounds were set here for any values at or beyond the usual limits of such assays
Conditions: source organism: Mammarenavirus brazilense
MEASURED_PARAMETER: Kd (nM)
Write down the numeric answer in nM and omit the unit.

{"CONSTRUCT_SEQUENCE": "YNYSLSAAV", "Kd (nM)": 88.4}

Consider the additional sequence presented here.
Request the reported Kd associated with AINIALIAV 681

###

Biological target: HLA-B*27:03
Test: IEDB peptide-MHC binding, purified MHC/direct/fluorescence; filed as Kd, often an IC50 or EC50 that approximates it; bounds were set here for any values at or beyond the usual limits of such assays
Details: source organism: Bacillus anthracis str. A0488
pKd: −log10 of the molar value.
MEASURED_PARAMETER: pKd

Request the reported pKd associated with WDAYIPHYV ≤ 4.70

FYI, the data here is from the Immune Epitope Database (IEDB).
